TEST TARGET: T1, Cynomolgus macaques CD200R1 isoform a on CHOK1 cells (CHOK1/cynoCD200R1a) (Cynomolgus macaques)
T1 chain: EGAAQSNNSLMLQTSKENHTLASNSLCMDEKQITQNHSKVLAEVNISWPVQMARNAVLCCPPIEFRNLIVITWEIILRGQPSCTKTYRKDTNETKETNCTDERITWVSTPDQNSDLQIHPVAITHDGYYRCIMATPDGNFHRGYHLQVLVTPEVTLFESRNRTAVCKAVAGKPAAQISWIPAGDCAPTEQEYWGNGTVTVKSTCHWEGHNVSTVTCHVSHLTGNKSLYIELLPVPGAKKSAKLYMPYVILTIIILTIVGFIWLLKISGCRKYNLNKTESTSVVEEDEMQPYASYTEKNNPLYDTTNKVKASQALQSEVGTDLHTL
PROTOCOL SUMMARY: flow cytometry, CHOK1/cynoCD200R1a cells (APC-A Mean); table beside the curves
MEASUREMENT LABEL: EC50

{"BINDER": "PR007974 (antibody, human IgG1, kappa, V domains shown, PTM variant of PR006839 (human IgG1)) VH: QVQLVESGGGVVQPGRSLRLSCAASGFTFSYYGFHWVRQAPGKGLEWLGLIWSDARHKDYADSVKGRFTISRDNSKNTLYLQMNSLRAEDTAVYYCARDRIVGEGFDYWGQGTLVTVSS VL: DIVMTQSPLSLPVTPGEPASISCRSSQSLLHRSGYNYLDWYLQKPGQSPQLLIYLGSYRASGVPDRFSGSGSGTDFTLKISRVEAEDVGVYYCQQGIQTTYTFGQGTKLEIKR", "MEASUREMENT LABEL": "EC50", "OBSERVED RESULT": "6.82 nM"}
{"BINDER": "PR002906 (antibody, V domains shown, also called recombinant IgG1 antibody of huDX182) VH: QVQLQESGPGLVKPSETLSLTCTVSGYTITSGYDWSWIRQPPGKGLEWIGYINYGGSTNYKPSLGSRVTISVDTSKNQFSLKLSSVTAADTAVYYCARYNEYKSYIYDWYFDFWGQGTLVTVSS VL: DIQMTQSPSSLSASVGDRVTITCKASKNIRSYLAWYQQKPGKAPKLLIYSGSTLHSGVPSRFSGSGSGTDFTLTISSLQPEDFATYYCQQHHEYPLTFGQGTKVEIKR", "MEASUREMENT LABEL": "EC50", "OBSERVED RESULT": "16.4 nM"}
{"BINDER": "PR007631 (antibody, human IgG1, kappa, V domains shown, PTM variant of PR006839 (human IgG1)) VH: QVQLVESGGGVVQPGRSLRLSCAASGFTFSSYGFHWVRQAPGKGLEWLGLIWSDARHKDYADSVKGRFTISRDNSKNTLYLQMNSLRAEDTAVYYCARDRIVGEGFDYWGQGTLVTVSS VL: DIVMTQSPLSLPVTPGEPASISCRSSQSLLHRSGYNYLDWYLQKPGQSPQLLIYLGSYRWSGVPDRFSGSGSGTDFTLKISRVEAEDVGVYYCMQGLQTMYTFGQGTKLEIKR", "MEASUREMENT LABEL": "EC50", "OBSERVED RESULT": "3.63 nM"}

Hello, please tell me recorded EC50 for this one: PR007630 (antibody, human IgG1, kappa, V domains shown, PTM variant of PR006839 (human IgG1)) VH: QVQLVESGGGVVQPGRSLRLSCAASGFTFSSYGFHWVRQAPGKGLEWLGIIWSDASNKYYADSVKGRFTISRDNSKNTLYLQMNSLRAEDTAVYYCARDRIVGEGFDYWGQGTLVTVSS VL: DIVMTQSPLSLPVTPGEPASISCRSSQSLLHRSGYNYLDWYLQKPGQSPQLLIYLGSYRASGVPDRFSGSGSGTDFTLKISRVEAEDVGVYYCMQGLQTMYTFGQGTKLEIKR
4.69 nM
